protocolDetails: in vitro
assayConditions: rat, plasma
Bridges are numbered along the chain shown (N, C = ends). Where no end group is shown, it is not given here.
measuredAttribute: remaining at 0.5 h (%)
Quick note: give the figure in %, leave out the unit.

Find the measured remaining at 0.5 h of CDATCQFRKAIDDCARQAHHSNVPGSVFKACMKQKKKEWKAGH (disulfide 1-5, 14-31) [SEQ ID NO 151] and report it.
120

Give a short answer stating reported remaining at 0.5 h for CDATCQFRKAIDDCQKQAHHSNVPGSVFKACMKQKKKEFKAGY (disulfide 1-5, 14-31) [SEQ ID NO 164] .
94.3

Could you please provide reported remaining at 0.5 h for CDATCQFRKAIDDCHLLAWHANVPGSVFKACMKQKKKEFKAG-NH2 (disulfide 1-5, 14-31) [SEQ ID NO 140] ? Thanks!
101

Assign remaining at 0.5 h to the following record: CDATCQFRKAIDDCYYRSWHSNVPGSVFKACMKQKKKEWKAG-NH2 (disulfide 1-5, 14-31) [SEQ ID NO 77]
97.9

Provide measured remaining at 0.5 h value, entry: CDATCQFRKAIDDCYYYAMHSNVPGSVWKACMKQKKKEFKAG-NH2 (disulfide 1-5, 14-31) [SEQ ID NO 150]
117

Specify remaining at 0.5 h for GCDATCQFRKAIDDCVRQAHHSNVPGSVFKACMKQKKKEWKAGH (disulfide 2-6, 15-32) [SEQ ID NO 88] and stop.
81.4

* * *

protocolDetails: in vitro
assayConditions: rat, plasma
Bridges are numbered along the chain shown (N, C = ends). Where no end group is shown, it is not given here.
Task for the reader: assign each of the following substances its reported remaining at 4 h.
// note: answer is a bare numeric in %

For the substance GCDATCQFRKAIDDCVRQAHHSNVPGSVFKACMKQKKKEWKAGH (disulfide 2-6, 15-32) [SEQ ID NO 88] , report remaining at 4 h.
110

Specify measured remaining at 4 h for CDATCQFRKAIDDCQKQAHHSNVPGSVFKACMKQKKKEFKAGY (disulfide 1-5, 14-31) [SEQ ID NO 164] .
106

Answer with reported remaining at 4 h of CDATCQFRKAIDDCYYRSWHSNVPGSVFKACMKQKKKEWKAG-NH2 (disulfide 1-5, 14-31) [SEQ ID NO 77]
89.6

Input CDATCQFRKAIDDCYYYAMHSNVPGSVWKACMKQKKKEFKAG-NH2 (disulfide 1-5, 14-31) [SEQ ID NO 150] , output reported remaining at 4 h.
90.2

Please indicate remaining at 4 h recorded for CDATCQFRKAIDDCHLLAWHANVPGSVFKACMKQKKKEFKAG-NH2 (disulfide 1-5, 14-31) [SEQ ID NO 140]
107

Indicate its recorded remaining at 4 h; the substance in question is CDATCQFRKAIDDCARQAHHSNVPGSVFKACMKQKKKEWKAGH (disulfide 1-5, 14-31) [SEQ ID NO 151]
112

* * *

testedTarget: rat PAC1 receptor (Rattus norvegicus, UniProt P32215)
Construct: SHSY-5Y (human neuroblastoma cell line) and RG-2 (rat glioma cell line) cells endogenously express human and rat PAC1 receptors, respectively; endogenous in cells; host or cells: RG-2 rat glioma cells
Sequence (P32215 20-523): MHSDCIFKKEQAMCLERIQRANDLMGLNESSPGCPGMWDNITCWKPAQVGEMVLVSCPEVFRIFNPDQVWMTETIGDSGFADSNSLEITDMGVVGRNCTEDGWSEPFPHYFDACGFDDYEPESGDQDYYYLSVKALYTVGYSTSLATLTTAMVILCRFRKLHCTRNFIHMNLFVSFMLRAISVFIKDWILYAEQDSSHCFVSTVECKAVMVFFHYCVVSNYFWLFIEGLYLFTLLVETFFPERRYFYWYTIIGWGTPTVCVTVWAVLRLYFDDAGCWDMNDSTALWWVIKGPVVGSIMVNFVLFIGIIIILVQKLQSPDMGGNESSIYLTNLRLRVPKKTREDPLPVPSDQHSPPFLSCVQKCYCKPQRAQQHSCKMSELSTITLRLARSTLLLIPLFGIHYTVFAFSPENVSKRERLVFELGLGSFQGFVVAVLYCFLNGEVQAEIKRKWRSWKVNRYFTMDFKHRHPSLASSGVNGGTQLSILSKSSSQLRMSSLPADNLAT
protocolDetails: LANCE Ultra cAMP accumulation antagonist assay in RG-2 cells;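 also: RG-2 rat glioma cells endogenously expressing PAC1, test peptide preincubated 30 min, then PAC1 agonist added at its EC80 for 15 min, cAMP accumulation read by LANCE Ultra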
Assay type: cell-based
Bridges are numbered along the chain shown (N, C = ends). Where no end group is shown, it is not given here.
Hi there, I'd appreciate the recorded IC50 for every entry that follows.

Return IC50 for the following substance: CDATCQFRKAIDDCVFWAAHSNVPGSVFKACMKQKKKEFKAG-NH2 (disulfide 1-5, 14-31) [compound 136]
0.01 to 1 nM

Indicate the recorded IC50 value for this substance: CDATCQFRKAIDDCQKQAHHSNVPGSVFKACMVQKKKEFKAG-NH2 (disulfide 1-5, 14-31) [compound 102]
0.01 to 1 nM

Determine from records and report IC50 for MCDATCQFRKAIDDCQKQAHHSNVPGSVFKACMKQKKKEFKAGHHHHHH (disulfide 2-6, 15-32) [compound 204]
0.01 to 1 nM

Specify measured IC50 for CDATCQFRKAIDDCQKQAHHSNVPGSVFKACMKQKKKEFKAN-NH2 (disulfide 1-5, 14-31) [compound 205] .
0.01 to 1 nM

Using the record for CDATCFFRKVIDDCQKQAHHSNVPGSVFKACMKQLKKRWQAG-NH2 (disulfide 1-5, 14-31) [compound 125] , state its measured IC50.
1 to 100 nM

Tell me its IC50 given CDATCQFRKAIDDCLWYARHSNVPGSVFKACMKQKKKEFKAG-NH2 (disulfide 1-5, 14-31) [compound 120] as the entry.
0.01 to 1 nM

Quickly give me recorded IC50 for CDATCHFRKAIDDCYYRSWHSNVPGSVFKACMKQHKKRWRAG-NH2 (disulfide 1-5, 14-31) [compound 71]
0.01 to 1 nM

Recall and state the measured IC50 for CDATCQFRKAIDDCFWLASHSNVPGSVWKACMKQKKKEFKAG-NH2 (disulfide 1-5, 14-31) [compound 119] .
0.01 to 1 nM

Dear colleague, please send me the reported IC50 for CDATCQFRKAIDDCWKQAHHSNVPGSVFKACMKQKKKEFKAG-NH2 (disulfide 1-5, 14-31) [compound 80] when you can.
< 0.01 nM

Please report the measured IC50 for CDATCQFRKCIDDWQKQAHHSNVPGSVFKARMKQCKKEFKAG-NH2 (disulfide 1-5, 10-35) [compound 176]
1 to 100 nM

Query IC50 for CDATCQFRKAIDDCVKQAHHSNVPGSVFKACMKQKKKEFKAGH (disulfide 1-5, 14-31) [SEQ ID NO 94]
0.01 to 1 nM

Give IC50 for the following substance: CDATCQFRKAIDDCDRQAHHSNVPGSVFKACMKQKKKEWKANN (disulfide 1-5, 14-31) [compound 154]
0.01 to 1 nM

// fetch IC50 given entry CDATCQFRKAIDDCDRQAHHSNVPGSVFKACMKQKKKEWKAG (disulfide 1-5, 14-31) [compound 81]
0.01 to 1 nM

# return recorded IC50 for input CDATCQFRKAIDDCQKQAHHSNVPGSVFKACMKFRFNVWKAG-NH2 (disulfide 1-5, 14-31) [compound 127]
0.01 to 1 nM

# return recorded IC50 for entry CDATCQFRKAIDDCVWKAFHANVPGSVFKACMKQKKKEFKAG-NH2 (disulfide 1-5, 14-31) [compound 118]
0.01 to 1 nM

Complete the entry with IC50 for MCDATCQFRKAIDDCQKQAHHSNVPGSVFKACMKQKKKEFKAGHHHHH (disulfide 2-6, 15-32) [compound 199]
0.01 to 1 nM

Please report the measured IC50 for CDATCQFRKAIDDCAKQAHHSNVPGSVFKLCMKQKKKEFKAG-NH2 (disulfide 1-5, 14-31) [compound 18]
< 0.01 nM

Query IC50 for CDATCQFRKAIDDCAKASWHSNVPGSVFKSCMKQKKKEWKAGH-NH2 (disulfide 1-5, 14-31) [compound 1]
< 0.01 nM

State, in one line, measured IC50 of CDATCQFRKAIDDCDRQAHHSNVPGSVFKACMKQKKKEWKAN-NH2 (disulfide 1-5, 14-31) [compound 158]
0.01 to 1 nM

State, in one line, measured IC50 of GCDATCQFRKAIDDCQKQAHHSNVPGSVFKACMKQKKKEFKAG-NH2 (disulfide 2-6, 15-32) [SEQ ID NO 181]
0.01 to 1 nM

Entry CDATCQFRKAIDECAKQAHHSNVPGSVFKACMKQKKKEFKAG-NH2 (disulfide 1-5, 14-31) [compound 12] needs its IC50 filled in; supply it.
< 0.01 nM

Tell me IC50 reported for CDATCQFRKAIDDCMWFAWHSNVPGSVFKACMKQKKKEFKAG-NH2 (disulfide 1-5, 14-31) [compound 122]
0.01 to 1 nM

Indicate its recorded IC50; the substance in question is CDATCQFRKAIDDCQKQAHHSNVPGSVFKACMKQKKKEFKAGY (disulfide 1-5, 14-31) [compound 164]
0.01 to 1 nM

Query IC50 for CDATCQFRKAIDDCAKQAHHSNVPGSVFKACMKQKKKEWKAGH (disulfide 1-5, 14-31) [SEQ ID NO 152]
0.01 to 1 nM

Output measured IC50 for this item: CDATCQFRKAIDDCQKQAHHSNVPGSVFKACMKQKKKEFKAGF (disulfide 1-5, 14-31) [compound 172]
0.01 to 1 nM

# return recorded IC50 for input CDATCQFRKAIDDCVRQAHHSNVPGSVWKACMKQKKKEWKAGH (disulfide 1-5, 14-31) [compound 106]
0.01 to 1 nM

Query IC50 for CDATCQFRKAIDDCQKQAHHSNVPGSVFKVCMKQKKKEFKAG-NH2 (disulfide 1-5, 14-31) [compound 211]
0.01 to 1 nM

Check the records and state IC50 for CDATCQFRKAIDDCFTWAWHSNVPGSVFKACMKQKKKEFKAG-NH2 (disulfide 1-5, 14-31) [compound 74]
0.01 to 1 nM
